Molecular target: T1, huCD98hc ECD Avi-His (human, UniProt P08195 105-529)
T1 construct: biotinylated on the Avi tag where captured on streptavidin; also called Human CD98-AVI-His; Human CD98hc-AVI-His
T1 sequence: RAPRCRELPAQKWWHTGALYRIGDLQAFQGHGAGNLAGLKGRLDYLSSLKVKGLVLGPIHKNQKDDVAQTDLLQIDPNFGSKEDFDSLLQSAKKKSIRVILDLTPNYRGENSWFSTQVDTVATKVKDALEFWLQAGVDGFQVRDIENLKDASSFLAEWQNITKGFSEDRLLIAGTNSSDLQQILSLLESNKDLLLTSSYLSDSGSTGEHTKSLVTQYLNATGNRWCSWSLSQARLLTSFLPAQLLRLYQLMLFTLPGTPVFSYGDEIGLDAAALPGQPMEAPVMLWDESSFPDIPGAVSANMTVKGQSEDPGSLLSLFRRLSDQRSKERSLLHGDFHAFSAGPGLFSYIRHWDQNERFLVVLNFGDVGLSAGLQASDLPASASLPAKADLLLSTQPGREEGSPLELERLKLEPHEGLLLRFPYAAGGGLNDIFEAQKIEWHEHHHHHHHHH
Experiment: ELISA, hybridoma supernatant
Recorded OD450 values for a group of binders are listed next.
// response body must contain only the number

Here is how some binders turned out for OD450.
Binder	OD450
CD98HC.03.031 (antibody, V domains shown, hybridoma IgG) VH: QVQLQQSGAELVRPGVSVKISCKASGYTFTDYAMHWVKQSHAKSLEWIGVISTYYGDTTYNQKFKDKATMTVDKSSSTAYLELARLTSEDSAIYYCARVWLLSYAMDNWGQGTSVTVSS VL: DIVMTQSQRFMSTSVGDGVRITCKASQNVRTAVAWYQQKPGQSPKALINLAPNRHTGVPDRFTARGSGTDFTLTISNVQSEDLADYFCLQHWNYPLTFGAGTKLELK	1.06
CD98HC.04.045 (antibody, V domains shown, hybridoma IgG) VH: QIQLVQSGPELKKPGETVKISCKASGYSITNFGMNWVKQAPGKGLKWMGWVNTYTGEPTYADDFKGRFAFSLETSASTASLQINNLKNEDTATYFCTRSVITYTMDYWGQGTSVTVSS VL: DIQLTQSPSSLSASLGERVSLTCRASQEISGYLSWLQQKPDGTIKRLIYAASTLDSGVPKRFSGSRSGSDYSLTISSLESEDFADYYCLQYASYPRTFGGGTKVEIK	1.51

Indicate the recorded OD450 value for this binder: CD98HC.03.010 (antibody, V domains shown, hybridoma IgG) VH: EVQLQQSGTELVKPGASVKLSCTASGLDIKDTYLHWVKQRPEQGLEWIGKIDPANGNTKYNPKFQGKATITADTSSNTAYLQLSSLTSEDTAVHYCTTPYYSGSSYGDYWGQGTTLTVSS VL: QIVLTQSPAIMSASPGEKVTLTCSASSSVSSSYLYWYQQKPGSSPKLWIYSTSNLASGVPARFSGSGSGTSYSLTISSMEAEDAASYFCHQWSRYPLTFGAGTKLELK
1
